Could you please report measured IC50 at 48 h for the items listed next?
PROTOCOL_DETAILS: HK-2 normal cell growth inhibition (cell toxicity), MTT method
Type: cell-based, human
TEST_CONDITIONS: human, HK-2 cells (proximal tubule); HK-2 normal cells, MTT, 48 h; read-out: half growth inhibition concentration (IC50), cell toxicity
Please give a number only; it is taken to be in µM.

-- ask Find the recorded IC50 at 48 h belonging to COc1cc([C@@H]2c3cc4c(cc3[C@@H]([n+]3c(C)c(C)nc(C)c3C)[C@H]3COC(=O)[C@H]23)OCO4)cc(OC)c1O and report it.
-- reply 0.24

-- ask Find the recorded IC50 at 48 h belonging to COc1cc([C@@H]2c3cc4c(cc3[C@H](O)[C@H]3COC(=O)[C@H]23)OCO4)cc(OC)c1OC and report it.
-- reply 0.0035

----------
PROTOCOL_DETAILS: Lipid-water partition coefficient test (n-octanol / biological brine, UV)
TEST_READOUT: logP
// return a plain number; no unit text

-- ask Find the recorded logP belonging to COc1cc([C@@H]2c3cc4c(cc3[C@@H]([n+]3c(C)c(C)nc(C)c3C)[C@H]3COC(=O)[C@H]23)OCO4)cc(OC)c1O and report it.
-- reply 0.66

-- ask Find the recorded logP belonging to COc1cc([C@@H]2c3cc4c(cc3[C@H](O)[C@H]3COC(=O)[C@H]23)OCO4)cc(OC)c1OC and report it.
-- reply 0.34
